PROCEDURE TEXT: Metabolic stability in human hepatic microsome
Assay type: in vitro ADME
CONDITION: microsomes, pH 7.4; human hepatic microsome, NADPH(+); read-out: CL NADPH(+)
Starred links: 1 amine or outer side, 2 acyl side, 3 side chain; linkers in the order of their positions; H or OH if unused. Positions of bridges follow the written chain, without caps; N, C: chain ends. Non-standard residues stand in square brackets, D forms with d. Residues, ends and D or L forms follow the SMILES beside them. *: point of attachment. NMeF = CN[C@@H](Cc1ccccc1)C(=O)O; NMeβAla = CN(CCC(=O)[*:2])[*:1]; NMeL = CN[C@@H](CC(C)C)C(=O)O; NMeA = CN[C@@H](C)C(=O)O; Piperidide = C1CCN(*)CC1; Sar = CNCC(=O)O
REPORTED ENDPOINT: microsomal CLint at 1 uM (µL/min/mg)
Numeric answer only, unit µL/min/mg assumed.

## Input Look up microsomal CLint at 1 uM: CC(C)C[C@H]1C(=O)N(C)[C@@H](C)C(=O)N(C)[C@@H](Cc2ccccc2)C(=O)N[C@@H]([C@@H](C)O)C(=O)N(C)[C@@H](C)C(=O)N(C)[C@@H](Cc2ccccc2)C(=O)N(C)[C@@H](C)C(=O)N[C@H](C(=O)N(C)[C@@H](Cc2ccccc2)C(=O)N[C@@H](C)C(=O)N2CCCCC2)CC(=O)N(C)CCC(=O)N(C)[C@@H](C)C(=O)N[C@@H](C)C(=O)N1C [DP-346] ([NMeβAla][NMeA]A[NMeL][NMeA][NMeF]T[NMeA][NMeF][NMeA]D[NMeF]A-Piperidide; lactam N-11)
## Output 7

## Input Look up microsomal CLint at 1 uM: CC(C)C[C@H](NC(=O)CN(C)C(=O)[C@@H]1CC(=O)N[C@H](C)C(=O)N[C@@H](C(C)C)C(=O)N(C)[C@@H](Cc2ccccc2)C(=O)N(C)[C@@H](CC(C)C)C(=O)N(C)[C@@H](C)C(=O)N[C@@H]([C@@H](C)O)C(=O)N[C@@H](Cc2ccccc2)C(=O)N1)C(=O)N1CCCCC1 [DP-571] ([dA]V[NMeF][NMeL][NMeA]TFD[Sar]L-Piperidide; lactam N-8)
## Output 62

----------
PROCEDURE TEXT: PAMPA (parallel artificial membrane permeability assay)
Assay type: in vitro ADME
CONDITION: PAMPA, pH 6.5
Positions of bridges follow the written chain, without caps; N, C: chain ends. Non-standard residues stand in square brackets, D forms with d. Residues, ends and D or L forms follow the SMILES beside them. *: point of attachment. Phe(4-CF3) = N[C@@H](Cc1ccc(C(F)(F)F)cc1)C(=O)O; NMeF = CN[C@@H](Cc1ccccc1)C(=O)O; NMeI = CC[C@H](C)[C@H](NC)C(=O)O; NMeL = CN[C@@H](CC(C)C)C(=O)O; NMeV = CN[C@H](C(=O)O)C(C)C; NMeA = CN[C@@H](C)C(=O)O; Piperidide = C1CCN(*)CC1; dNMeA = CN[C@H](C)C(=O)O; β3hA = C[C@H](N)CC(=O)O; Sar = CNCC(=O)O; tBu = CC(C)(C)*
Short version: Papp at 18 hours, 50 µM at least 30 ×10⁻⁶ cm/s is t, less is f.

## Input Can CC(C)C[C@H]1C(=O)NCC(=O)N[C@H](C(=O)N2CCCCC2)CC(=O)N[C@H](C)C(=O)N[C@@H]([C@@H](C)O)C(=O)N(C)[C@@H](C)C(=O)N(C)[C@@H](Cc2ccccc2)C(=O)N[C@@H](COC(C)(C)C)C(=O)N(C)[C@@H](Cc2ccccc2)C(=O)N1C [DP-52] ([dA]T[NMeA][NMeF]S(tBu)[NMeF][NMeL]GD-Piperidide; lactam N-9) be said to have Papp at 18 hours, 50 µM at or above 30 ×10⁻⁶ cm/s?
## Output f

## Input Can CC[C@H](C)[C@H]1C(=O)N[C@@H](C)C(=O)N[C@H](C(=O)N2CCCCC2)CC(=O)N[C@H](C(C)C)C(=O)N[C@@H](Cc2ccccc2)C(=O)N(C)CC(=O)N[C@@H](CC(C)C)C(=O)N[C@@H](Cc2ccccc2)C(=O)N2CCC[C@H]2C(=O)N[C@@H]([C@@H](C)O)C(=O)N[C@@H](COC(C)(C)C)C(=O)N(C)[C@@H](CC(C)C)C(=O)N1C [DP-55] ([dV]F[Sar]LFPTS(tBu)[NMeL][NMeI]AD-Piperidide; lactam N-12) be said to have Papp at 18 hours, 50 µM at or above 30 ×10⁻⁶ cm/s?
## Output f

## Input Can CC[C@H](C)[C@H]1C(=O)N(C)[C@@H](C)C(=O)N[C@H](C(=O)N2CCCCC2)CC(=O)N(C)CC(=O)N[C@@H](COC(C)(C)C)C(=O)N(C)CC(=O)N(C)[C@@H](CC(C)C)C(=O)N[C@@H]([C@@H](C)O)C(=O)N(C)[C@@H](Cc2ccccc2)C(=O)N(C)[C@@H](CC(C)C)C(=O)N1C [DP-76] ([Sar]S(tBu)[Sar][NMeL]T[NMeF][NMeL][NMeI][NMeA]D-Piperidide; lactam N-10) be said to have Papp at 18 hours, 50 µM at or above 30 ×10⁻⁶ cm/s?
## Output f

## Input Can CC[C@H](C)[C@@H]1NC(=O)[C@H](CC(C)C)N(C)C(=O)[C@H](CC(C)C)N(C)C(=O)[C@H](C)NC(=O)[C@H](CC(C)C)N(C)C(=O)[C@H](Cc2ccc(C(F)(F)F)cc2)NC(=O)[C@H]([C@@H](C)O)NC(=O)[C@H](CC(C)C)N(C)C(=O)[C@H](CC(C)C)N(C)C(=O)[C@H](C)N(C)C(=O)C[C@H](C)NC1=O [DP-776] (cyclo(A[NMeL][NMeL]I[β3hA][NMeA][NMeL][NMeL]T[Phe(4-CF3)][NMeL])) be said to have Papp at 18 hours, 50 µM at or above 30 ×10⁻⁶ cm/s?
## Output f

## Input Can CC[C@H](C)[C@H]1C(=O)NCC(=O)N(C)[C@@H](Cc2ccccc2)C(=O)N[C@@H]([C@@H](C)O)C(=O)N(C)[C@@H](CC(C)C)C(=O)N[C@@H](CC(C)C)C(=O)N[C@@H](C)CC(=O)N(C)[C@H](C)C(=O)N(C)[C@@H](CC(C)C)C(=O)N[C@@H](Cc2ccccc2)C(=O)N(C)[C@@H](CC(C)C)C(=O)N[C@@H](C(C)C)C(=O)N1C [DP-757] (cyclo(F[NMeL]V[NMeI]G[NMeF]T[NMeL]L[β3hA][dNMeA][NMeL])) be said to have Papp at 18 hours, 50 µM at or above 30 ×10⁻⁶ cm/s?
## Output t

## Input Can CC[C@H](C)[C@@H]1NC(=O)[C@H](C)N(C)C(=O)[C@H]([C@@H](C)O)NC(=O)[C@H](C(C)C)N(C)C(=O)[C@H](C)N(C)C(=O)[C@H](Cc2ccccc2)NC(=O)[C@H](C)NC(=O)C[C@@H](C(=O)N(C)[C@@H](Cc2ccccc2)C(=O)N[C@@H](C)C(=O)N2CCCCC2)NC(=O)[C@H](C)N(C)C(=O)[C@H](CC(C)C)N(C)C1=O [DP-288] (AF[NMeA][NMeV]T[NMeA]I[NMeL][NMeA]D[NMeF]A-Piperidide; lactam N-10) be said to have Papp at 18 hours, 50 µM at or above 30 ×10⁻⁶ cm/s?
## Output f

## Input Can CC[C@H](C)[C@H]1C(=O)N[C@@H](COC(C)(C)C)C(=O)N[C@@H](C)CC(=O)N(C)[C@@H](C)C(=O)N(C)[C@@H](Cc2ccccc2)C(=O)N(C)CC(=O)N(C)[C@@H](CC(C)C)C(=O)N[C@@H]([C@@H](C)O)C(=O)N(C)[C@@H](C)C(=O)N(C)[C@@H](CC(C)C)C(=O)N1C [DP-779] (cyclo([NMeA][NMeF][Sar][NMeL]T[NMeA][NMeL][NMeI]S(tBu)[β3hA])) be said to have Papp at 18 hours, 50 µM at or above 30 ×10⁻⁶ cm/s?
## Output t

## Input Can CC[C@H](C)[C@H]1C(=O)NCC(=O)N(C)[C@@H](CC(C)C)C(=O)N[C@@H](CC(C)C)C(=O)N[C@H](C(=O)N2CCCCC2)CC(=O)N(C)[C@@H](C)C(=O)N[C@@H](CC(C)C)C(=O)N(C)[C@@H](C)C(=O)N[C@@H]([C@@H](C)O)C(=O)N2CCC[C@H]2C(=O)N(C)[C@@H](Cc2ccccc2)C(=O)N[C@@H](Cc2ccccc2)C(=O)N1C [DP-220] ([NMeA]L[NMeA]TP[NMeF]F[NMeI]G[NMeL]LD-Piperidide; lactam N-12) be said to have Papp at 18 hours, 50 µM at or above 30 ×10⁻⁶ cm/s?
## Output t
